ASSAY TARGET: GST-Nv-NF-kB (Ser allele) (Nematostella vectensis, UniProt A7UNT2 2-411)
Sequence: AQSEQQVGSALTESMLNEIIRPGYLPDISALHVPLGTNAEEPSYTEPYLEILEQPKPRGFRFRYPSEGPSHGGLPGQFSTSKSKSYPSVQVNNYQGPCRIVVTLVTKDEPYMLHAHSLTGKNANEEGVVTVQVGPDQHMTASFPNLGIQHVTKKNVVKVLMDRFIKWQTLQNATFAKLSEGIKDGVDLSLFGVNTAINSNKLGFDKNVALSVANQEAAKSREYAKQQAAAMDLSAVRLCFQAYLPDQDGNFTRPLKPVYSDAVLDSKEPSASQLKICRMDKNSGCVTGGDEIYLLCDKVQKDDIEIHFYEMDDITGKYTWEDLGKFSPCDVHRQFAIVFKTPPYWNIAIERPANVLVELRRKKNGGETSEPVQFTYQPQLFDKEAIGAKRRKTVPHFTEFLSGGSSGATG
EXPERIMENT: protein-binding microarray (PBM); PBM: ~300 nM protein, 6 mM HEPES pH 7.8, 80 mM KCl, 0.5 mM EDTA, 0.5 mM EGTA, 6% glycerol, 35 ng/ul poly-dIdC, 1% milk, 1 h, room temperature; high values mean tight binding
CONDITION SET: dsDNA, one strand shown
VALUE TYPE: binding signal

Use these answered entries as a reference point.
In [3]: df
Out[3]:
                             sequence_chain  endpoint_value
0  CCGATTAACATCAGGGGGGGAACTGATGTTAATCGGGTCTTGATTCGCTTGACGCTGCTG    6.12 z-score
1  CCGATTAACATCAGGGCCCCCCCTGATGTTAATCGGGTCTTGATTCGCTTGACGCTGCTG    3.34 z-score
2  CCGATTAACATCAGGGACTTTAATGATGTTAATCGGGTCTTGATTCGCTTGACGCTGCTG    6.21 z-score

Exam item: binding signal lookup needed for CCGATTAACATCACAAATGGGAATGATGTTAATCGGGTCTTGATTCGCTTGACGCTGCTG , thanks.
Marked response: 1.63 z-score

Exam item: binding signal lookup needed for CCGATTAACATCAAAAACCACCCTGATGTTAATCGGGTCTTGATTCGCTTGACGCTGCTG , thanks.
Marked response: 4.22 z-score

* * *

ASSAY TARGET: GST-Hu-p50 (Homo sapiens, UniProt P19838 7-356)
Sequence (P19838 7-356): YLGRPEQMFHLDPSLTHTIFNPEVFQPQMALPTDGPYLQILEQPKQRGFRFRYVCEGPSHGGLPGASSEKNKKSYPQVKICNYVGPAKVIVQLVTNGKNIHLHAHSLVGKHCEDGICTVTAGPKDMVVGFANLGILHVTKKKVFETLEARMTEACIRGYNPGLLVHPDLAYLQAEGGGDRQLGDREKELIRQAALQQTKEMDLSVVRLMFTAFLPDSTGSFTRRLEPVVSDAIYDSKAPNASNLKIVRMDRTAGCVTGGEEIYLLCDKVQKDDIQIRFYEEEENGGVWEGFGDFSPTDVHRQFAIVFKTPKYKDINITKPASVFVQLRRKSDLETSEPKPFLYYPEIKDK
EXPERIMENT: protein-binding microarray (PBM); PBM: ~300 nM protein, 6 mM HEPES pH 7.8, 80 mM KCl, 0.5 mM EDTA, 0.5 mM EGTA, 6% glycerol, 35 ng/ul poly-dIdC, 1% milk, 1 h, room temperature; Ap Aiptasia and Nv Nematostella (sea anemones) / Co Capsaspora / Aq Amphimedon (sponge) / Dm Drosophila / Hu human; RHD is the Rel homology domain; high values mean tight binding
CONDITION SET: dsDNA, one strand shown
As shown below, each of these sequences has a reported binding signal value.
Provide the reading as a plain figure in z-score.

Use these answered entries as a reference point.
>>> print(df.to_string())
                             sequence_chain      value_type  endpoint_value
0  CCGATTAACATCAAGGGAAACCCTGATGTTAATCGGGTCTTGATTCGCTTGACGCTGCTG  binding signal            2.93
1  CCGATTAACATCACGGCAACCCCTGATGTTAATCGGGTCTTGATTCGCTTGACGCTGCTG  binding signal            1.19
2  CCGATTAACATCAGGAAATTTCCTGATGTTAATCGGGTCTTGATTCGCTTGACGCTGCTG  binding signal             2.5

Next, consider the following sequence.
Exam item: binding signal lookup needed for CCGATTAACATCACGGGAACCCCTGATGTTAATCGGGTCTTGATTCGCTTGACGCTGCTG , thanks.
Marked response: 3.43

Values from paper PMC5700166
